# PROCEDURE_DETAILS: Human serum stability monitored by 31P NMR
# Assay type: in vitro ADME
# PROTOCOL_CONDITIONS: 37 °C, 7.5 h
READOUT_TYPE: half-life

# lookup: half-life of C/C(=C\CC(F)(F)P(=O)(N[C@@H](C)C(=O)OC(C)C)N[C@@H](C)C(=O)OC(C)C)CO
> 7.5 h
